assayed-target: PI3Kδ (p110δ/p85α) Recombinant Human Protein (Homo sapiens (Human))
Sequence (O00329 whole entry): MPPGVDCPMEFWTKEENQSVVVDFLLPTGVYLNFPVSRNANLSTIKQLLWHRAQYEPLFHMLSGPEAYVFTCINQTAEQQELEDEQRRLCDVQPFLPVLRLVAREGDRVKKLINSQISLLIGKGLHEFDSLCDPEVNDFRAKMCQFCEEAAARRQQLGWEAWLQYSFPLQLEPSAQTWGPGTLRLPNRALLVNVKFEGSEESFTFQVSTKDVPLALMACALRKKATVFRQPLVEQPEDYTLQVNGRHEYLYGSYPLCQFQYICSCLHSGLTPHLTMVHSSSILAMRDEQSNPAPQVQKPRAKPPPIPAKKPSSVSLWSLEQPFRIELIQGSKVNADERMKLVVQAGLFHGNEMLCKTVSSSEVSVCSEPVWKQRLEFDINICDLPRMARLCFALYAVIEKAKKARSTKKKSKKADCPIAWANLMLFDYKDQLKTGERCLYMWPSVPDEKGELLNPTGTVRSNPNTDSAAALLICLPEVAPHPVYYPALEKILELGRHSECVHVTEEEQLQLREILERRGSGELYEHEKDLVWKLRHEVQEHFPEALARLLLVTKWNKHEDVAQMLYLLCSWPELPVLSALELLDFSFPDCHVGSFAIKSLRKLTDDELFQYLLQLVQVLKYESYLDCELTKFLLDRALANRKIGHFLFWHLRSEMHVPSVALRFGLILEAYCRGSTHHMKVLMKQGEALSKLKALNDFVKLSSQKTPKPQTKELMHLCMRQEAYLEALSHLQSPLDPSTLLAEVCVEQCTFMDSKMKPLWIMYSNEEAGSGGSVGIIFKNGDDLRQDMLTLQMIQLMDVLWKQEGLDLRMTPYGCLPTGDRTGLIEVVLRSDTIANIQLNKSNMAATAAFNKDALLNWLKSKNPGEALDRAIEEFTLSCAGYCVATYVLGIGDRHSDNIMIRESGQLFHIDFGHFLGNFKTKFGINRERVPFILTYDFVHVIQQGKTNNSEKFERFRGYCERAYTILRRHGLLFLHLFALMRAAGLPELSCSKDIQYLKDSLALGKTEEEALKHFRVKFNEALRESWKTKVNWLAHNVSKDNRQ
Sequence (P27986 whole entry partner): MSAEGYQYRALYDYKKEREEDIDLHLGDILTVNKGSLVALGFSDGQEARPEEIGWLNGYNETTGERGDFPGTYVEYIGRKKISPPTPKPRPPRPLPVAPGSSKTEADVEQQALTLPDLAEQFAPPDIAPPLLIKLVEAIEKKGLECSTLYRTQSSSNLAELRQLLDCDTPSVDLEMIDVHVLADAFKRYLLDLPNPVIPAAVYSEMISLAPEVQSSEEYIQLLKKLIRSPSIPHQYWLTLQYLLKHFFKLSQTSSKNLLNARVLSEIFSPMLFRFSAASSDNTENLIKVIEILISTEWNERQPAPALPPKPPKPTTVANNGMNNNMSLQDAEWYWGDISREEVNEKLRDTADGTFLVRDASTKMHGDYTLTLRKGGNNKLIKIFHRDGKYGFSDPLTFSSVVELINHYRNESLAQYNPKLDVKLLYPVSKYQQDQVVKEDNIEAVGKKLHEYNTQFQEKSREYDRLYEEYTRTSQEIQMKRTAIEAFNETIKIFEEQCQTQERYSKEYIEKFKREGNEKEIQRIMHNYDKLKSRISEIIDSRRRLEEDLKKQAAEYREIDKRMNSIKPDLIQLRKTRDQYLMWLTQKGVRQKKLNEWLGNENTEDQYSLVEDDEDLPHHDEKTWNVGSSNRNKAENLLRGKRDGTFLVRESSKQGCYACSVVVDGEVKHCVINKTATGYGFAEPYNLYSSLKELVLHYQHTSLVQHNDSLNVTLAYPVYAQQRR
method-notes: PI3Kδ Scintillation Proximity Assay
Type: biochemical
experimental-context: 20 μM PIP2, 2 μM ATP, 3.4 nM PI3Kδ, 120 min
Counter-ions that a name gives are not always drawn.
Overview of recorded IC50 for various molecules

• Nc1nc(C(F)(F)F)cn2c(-c3ccc4c(c3)CN(C(C(=O)O)C3CC3)C4=O)cnc12 (racemic) [Example 47, trifluoroacetate salt] = ≥ 2000 nM
• CC(C)c1cc2nc(-c3cnc4c(N)ncnn34)ccn2n1 [Example 24, trifluoroacetate salt] = ≥ 2000 nM
• CC(C)c1cn2cc(-c3cnc4c(N)ncnn34)ccc2n1 [Example 22] = ≥ 2000 nM
• Cc1ncc(-c2cn3c(-c4cc5c(c(S(C)(=O)=O)c4)C(=O)N([C@@H](C)C4CC4)C5)cnc3c(N)n2)o1 (single isomer, unassigned) [Example 33, trifluoroacetate salt] = ≤ 100 nM
• C[C@@H](C1CC1)N1Cc2cc(-c3cnc4c(N)nc(C(F)(F)F)cn34)ccc2C1=O [Example 5] = ≥ 2000 nM

Entry C[C@@H](C1CC1)N1Cc2cc(-c3cnc4c(N)nc(C(F)(F)F)cn34)cc(Cl)c2C1=O [Example 1] has what IC50?
< 2000 nM

Could you share which IC50 value was measured for CC(c1ccccc1)N1Cc2cc(-c3cnc4c(N)ncnn34)ccc2C1=O (racemic) [Example 12, trifluoroacetate salt] ?
≤ 500 nM

Fill in the blank: the reported IC50 of CS(=O)(=O)NCC(C1CC1)N1Cc2cc(-c3cnc4c(N)nc(C(F)(F)F)cn34)ccc2C1=O (racemic) [Example 43, trifluoroacetate salt] is ____.
≥ 2000 nM

Field request: IC50 | item: C[C@@H](C1CC1)N1Cc2cc(-c3cnc4c(N)nc(C(=O)NC56CC(C5)C6)cn34)cc(S(C)(=O)=O)c2C1=O (single isomer, unassigned) [Example 29b, trifluoroacetate salt]
≤ 500 nM

Look up IC50: CC(=O)NCC(C1CC1)N1Cc2cc(-c3cnc4c(N)nc(C(F)(F)F)cn34)ccc2C1=O (racemic) [Example 44, trifluoroacetate salt]
≥ 2000 nM

Item under review: CC(O)c1cc(-c2cnc3c(N)ncnn23)cc2c1C(=O)N([C@@H](C)C1CC1)C2 (mixture of isomers) [Example 16, trifluoroacetate salt] . Reported IC50?
≤ 500 nM

IC50 for C[C@@H](C1CC1)N1Cc2cc(-c3cnc4c(N)nc(C(=O)N5CCC5)cn34)cc(S(C)(=O)=O)c2C1=O [Example 29a, trifluoroacetate salt] ?
< 2000 nM

Entry under review: C[C@@H](C1CC1)N1Cc2cc(-c3cnc4c(N)ncnn34)cc(C(C)(C)O)c2C1=O [Example 17, trifluoroacetate salt] . Reported IC50?
< 2000 nM

The origin of these recorded values is patent US11078204B2.
